Experimental system: Adenosine receptor A3 (Homo sapiens) (UniProt P0DMS8)
Sequence (whole entry): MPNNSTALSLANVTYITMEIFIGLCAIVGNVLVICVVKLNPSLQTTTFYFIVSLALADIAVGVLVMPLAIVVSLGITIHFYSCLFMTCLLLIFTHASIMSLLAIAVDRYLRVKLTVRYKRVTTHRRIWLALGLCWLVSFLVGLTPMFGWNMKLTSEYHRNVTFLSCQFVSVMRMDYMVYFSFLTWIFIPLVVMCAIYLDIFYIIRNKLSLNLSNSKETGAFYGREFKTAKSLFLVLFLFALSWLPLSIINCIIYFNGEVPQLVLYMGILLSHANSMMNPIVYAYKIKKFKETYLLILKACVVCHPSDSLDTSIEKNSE
Test method notes: Inhibition of [3H]NECA binding to human adenosine A3 receptor expressed in human HeLa cells at 1 uM after 3 hrs by filtration binding assay
Type: cell-based
Assay metric: inhibition (%)

> print(dat)
                                   compound  assay.metric  assay.result
1  O=c1[nH]c2cc(-c3ccncn3)c(-c3ccco3)nc2[nH]1    inhibition            18

(1) c1coc(-c2nc3[nH]cnc3cc2-c2ccncn2)c1
(2) Nc1n[nH]c2nc(-c3ccco3)c(-c3ccncn3)cc12
(3) c1coc(-c2nc3[nH]ncc3cc2-c2ccncn2)c1
(4) c1coc(-c2nc3[nH]ccc3cc2-c2ccncn2)c1
# ascending order, key=inhibition API: response body holds the labels in the requested order.
1, 3, 4, 2

(P) O=c1[nH][nH]c2nc(-c3ccco3)c(-c3ccncn3)cc12
(Q) Cn1c(=O)[nH]c2nc(-c3ccco3)c(-c3ccncn3)cc21
Of P versus Q , which is the one with smaller reported inhibition? # respond with the chosen item's label
P
(P: 2%, Q: 17%)

###

Protein target, amino acids: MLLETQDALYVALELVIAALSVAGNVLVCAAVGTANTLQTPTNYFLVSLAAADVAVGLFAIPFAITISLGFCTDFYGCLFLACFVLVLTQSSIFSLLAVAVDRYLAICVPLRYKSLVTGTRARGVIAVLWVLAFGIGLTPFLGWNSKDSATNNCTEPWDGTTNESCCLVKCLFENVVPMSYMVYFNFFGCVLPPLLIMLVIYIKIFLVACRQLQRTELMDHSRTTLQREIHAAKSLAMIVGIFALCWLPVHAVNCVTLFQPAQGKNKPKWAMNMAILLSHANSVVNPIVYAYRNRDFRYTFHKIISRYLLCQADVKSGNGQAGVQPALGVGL
pKi: −log10 of the molar value.
Assay metric: pKi

> print(dat)
                              compound  assay.result
1  c1coc(-c2nc3[nH]cnc3cc2-c2ccncn2)c1          7.68

(a) O=c1[nH]c(=O)c2cc(-c3ccncn3)c(-c3ccco3)nc2[nH]1
(b) O=c1[nH][nH]c2nc(-c3ccco3)c(-c3ccncn3)cc12
Between the entries labeled a and b , whose measured pKi is lower? # respond with the chosen item's label
b

###

Test method notes: Metabolic stability in rat liver microsomes assessed as turnover at 5 uM after 30 mins in absence of NADPH
Format: ADME, Microsome
Study conditions: read-out: Stability
Assay metric: metabolised at 0.5 h, 5 µM (%)

Examples with answers:
> print(dat)
                                   compound  assay.result
1       c1coc(-c2nc3[nH]ccc3cc2-c2ccncn2)c1            88
2    Nc1n[nH]c2nc(-c3ccco3)c(-c3ccncn3)cc12             6
3  O=c1[nH][nH]c2nc(-c3ccco3)c(-c3ccncn3)cc12             7
4  Cn1c(=O)[nH]c2nc(-c3ccco3)c(-c3ccncn3)cc21             8

(1) O=c1[nH]c2cc(-c3ccncn3)c(-c3ccco3)nc2[nH]1
(2) O=c1[nH]c(=O)c2cc(-c3ccncn3)c(-c3ccco3)nc2[nH]1
# min-compare on metabolised at 0.5 h, 5 µM between 1 and 2 Write down the label of the entry you select.
2

(A) c1coc(-c2nc3[nH]cnc3cc2-c2ccncn2)c1
(B) c1coc(-c2nc3[nH]ncc3cc2-c2ccncn2)c1
Just curious, which one has the larger metabolised at 0.5 h, 5 µM reading, A or B ? Identify your pick by its label.
B

###

Test method notes: Thermodynamic solubility at pH 7.4
Type: physicochemical
Study conditions: buffer
Assay metric: solubility thermodynamic (µg/mL)

> print(dat)
                                   compound              assay.metric  assay.result
1  O=c1[nH]c2cc(-c3ccncn3)c(-c3ccco3)nc2[nH]1  solubility thermodynamic            48

(I) Nc1n[nH]c2nc(-c3ccco3)c(-c3ccncn3)cc12
(II) c1coc(-c2nc3[nH]ncc3cc2-c2ccncn2)c1
(III) O=c1[nH]c(=O)c2cc(-c3ccncn3)c(-c3ccco3)nc2[nH]1
Hey, can you sort those compounds up there by solubility thermodynamic, smallest first? Order the labels as requested and give them as your answer.
III, I, II
(III: 61 µg/mL, I: 204 µg/mL, II: 296 µg/mL)

###

Test method notes: Apparent permeability across human Caco-2 cells at 12.5 uM
Format: ADME, cell-based
Study conditions: read-out: permeability
Assay metric: Papp at 12.5 µM (×10⁻⁶ cm/s)

> print(dat)
                                   compound  assay.result
1       c1coc(-c2nc3[nH]ncc3cc2-c2ccncn2)c1            39
2  O=C(Nc1ccc(-c2ccncn2)c(-c2ccco2)n1)C1CC1            45
3  O=c1[nH]c(=O)c2cc(-c3ccncn3)c(-c3ccco3)nc2[nH]1            20
4       c1coc(-c2nc3[nH]ccc3cc2-c2ccncn2)c1            40
5  Cn1c(=O)[nH]c2nc(-c3ccco3)c(-c3ccncn3)cc21            32
6       c1coc(-c2nc3[nH]cnc3cc2-c2ccncn2)c1            23
7    Nc1n[nH]c2nc(-c3ccco3)c(-c3ccncn3)cc12            24

(I) O=c1[nH]c2cc(-c3ccncn3)c(-c3ccco3)nc2[nH]1
(II) O=c1[nH][nH]c2nc(-c3ccco3)c(-c3ccncn3)cc12
Select one. Lower Papp at 12.5 µM: I or II Return value: the label identifying the chosen record.
II

###

Test method notes: Cmax in rat at 1 mg/kg, iv
Type: ADME, organism-based
Design: dose 1 mg/kg, route intravenous
Study conditions: in vivo
Assay metric: Cmax (ng/mL)

> print(dat)
                                   compound  assay.metric  assay.result
1  O=c1[nH]c(=O)c2cc(-c3ccncn3)c(-c3ccco3)nc2[nH]1          Cmax          1680
2       c1coc(-c2nc3[nH]ncc3cc2-c2ccncn2)c1          Cmax          1050

(I) O=c1[nH][nH]c2nc(-c3ccco3)c(-c3ccncn3)cc12
(II) O=c1[nH]c2cc(-c3ccncn3)c(-c3ccco3)nc2[nH]1
(III) Nc1n[nH]c2nc(-c3ccco3)c(-c3ccncn3)cc12
Arrange the 3 compounds from largest to smallest Cmax. Provide your answer as the labels ordered per the instruction.
I, II, III
(I: 1330 ng/mL, II: 762 ng/mL, III: 397 ng/mL)

###

Test method notes: Clearance in rat at 1 mg/kg, iv
Type: ADME, organism-based
Design: dose 1 mg/kg, route intravenous
Study conditions: in vivo
Assay metric: clearance (mL/min/kg)

> print(dat)
                                   compound  assay.metric  assay.result
1    Nc1n[nH]c2nc(-c3ccco3)c(-c3ccncn3)cc12     clearance           102
2  O=c1[nH][nH]c2nc(-c3ccco3)c(-c3ccncn3)cc12     clearance          33.3
3       c1coc(-c2nc3[nH]ncc3cc2-c2ccncn2)c1     clearance          23.3

(a) O=c1[nH]c(=O)c2cc(-c3ccncn3)c(-c3ccco3)nc2[nH]1
(b) O=c1[nH]c2cc(-c3ccncn3)c(-c3ccco3)nc2[nH]1
Between the entries labeled a and b , whose measured clearance is lower? In your reply, give the label of the chosen option.
a

###

Test method notes: Terminal half life in rat at 1 mg/kg, iv
Format: ADME, organism-based
Parameters: dose 1 mg/kg, route intravenous
Study conditions: in vivo
Assay metric: half-life (min)

> print(dat)
                                   compound  readout.units  assay.result
1    Nc1n[nH]c2nc(-c3ccco3)c(-c3ccncn3)cc12            min            24
2  O=c1[nH][nH]c2nc(-c3ccco3)c(-c3ccncn3)cc12            min            24
3  O=c1[nH]c2cc(-c3ccncn3)c(-c3ccco3)nc2[nH]1            min            60

(A) c1coc(-c2nc3[nH]ncc3cc2-c2ccncn2)c1
(B) O=c1[nH]c(=O)c2cc(-c3ccncn3)c(-c3ccco3)nc2[nH]1
I need your help: which of the pair A , B has higher half-life? Use the label to indicate which entry you chose.
A
